- assayed.system: SIRT1 (Homo sapiens, UniProt Q96EB6)
- Sequence (Q96EB6 whole entry): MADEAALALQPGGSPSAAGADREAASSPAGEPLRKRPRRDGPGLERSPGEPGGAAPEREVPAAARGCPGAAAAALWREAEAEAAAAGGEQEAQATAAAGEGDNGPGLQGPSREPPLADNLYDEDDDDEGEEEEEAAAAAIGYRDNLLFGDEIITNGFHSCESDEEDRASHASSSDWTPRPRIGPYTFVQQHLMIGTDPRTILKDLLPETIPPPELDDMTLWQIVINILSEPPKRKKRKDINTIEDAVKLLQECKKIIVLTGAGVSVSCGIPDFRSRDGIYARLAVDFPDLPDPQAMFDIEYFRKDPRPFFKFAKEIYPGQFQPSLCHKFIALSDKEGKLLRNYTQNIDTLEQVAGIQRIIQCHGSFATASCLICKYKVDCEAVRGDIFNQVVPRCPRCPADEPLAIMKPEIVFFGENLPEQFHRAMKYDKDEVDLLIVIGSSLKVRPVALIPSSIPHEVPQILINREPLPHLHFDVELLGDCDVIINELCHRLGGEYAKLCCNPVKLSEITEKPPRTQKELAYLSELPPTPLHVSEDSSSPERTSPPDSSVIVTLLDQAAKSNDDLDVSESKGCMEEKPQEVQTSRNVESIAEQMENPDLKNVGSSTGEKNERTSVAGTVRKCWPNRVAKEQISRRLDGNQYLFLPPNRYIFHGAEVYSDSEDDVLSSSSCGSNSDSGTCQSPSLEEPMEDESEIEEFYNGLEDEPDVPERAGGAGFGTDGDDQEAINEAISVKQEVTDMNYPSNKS
- measurement.description: Trp mass spectrometry assay of SIRT1 activation (Ac-R-H-K-K(Ac)-W-NH2 peptide)
- Assay type: biochemical
- measurement.conditions: 25 min, Trp peptide 0.5 μM, 120 μM βNAD+, 10 nM SIRT1, 25 min at 25° C.; relative to control (100%); read-out: TRP MAX RESP (percent maximum fold activation)

{"columns": ["compound", "Emax"],
 "data": [
  ["Cc1ncc(-c2ccnc(NC(=O)N3c4nc(C(=O)N[C@H](C)C(F)(F)F)ccc4N4CC[C@H]3C4)c2)s1", "> 150%"],
  ["CC(C)NC(=O)c1ccnc(NC(=O)N2c3nc(C(=O)N[C@H](C)C(F)(F)F)ccc3N3CC[C@H]2C3)c1", "< 150%"],
  ["O=C(NC1CC1)c1ccc2c(n1)N(C(=O)Nc1ccc(Cl)cn1)[C@H]1CCN2C1", "> 150%"],
  ["COCC(C)NC(=O)c1ccc2c(n1)N(C(=O)Nc1ccccn1)[C@H]1CCN2C1 (stereo partly shown)", "> 150%"]
]}
